Reported values of EC50 for individual entries
# Subject Of Test: PPARδ (Homo sapiens, UniProt Q03181)
# Construct: fused to amino acids 147-441 of PPARδ downstream of CMV promoter; expressed in transfected cells; host or cells: HEK293 cells, transiently transfected with pFACMV-PPARδ using Fugene
# Assay Remarks: Transactivation assay (PPARδ GAL4 assay) in transiently transfected HEK293 cells
# Assay type: cell-based
# Details: luciferase reporter, Table 2

Reference set (4 entries):
{"Compound": "CCC(C)c1cc(C(=O)c2ccc(OC(F)(F)F)cc2)c(NC(=O)CSCC(=O)O)s1 (centres unmarked)", "Reading": "100 to 1000 nM"}
{"Compound": "CCc1cc(C(=O)c2ccc(OC(F)(F)F)cc2)c(NC(=O)C2CCCN(CC(=O)O)C2)s1 (centres unmarked)", "Reading": "1000 to 30000 nM"}
{"Compound": "CCc1cc(C(=O)c2ccc(OC(F)(F)F)cc2)c(NC(=O)CCC(C)(C)C(=O)O)s1", "Reading": "< 100 nM"}
{"Compound": "CCc1cc(C(=O)c2ccc(OC(F)(F)F)cc2)c(NC(=O)C(c2ccccc2)N2CCC[C@@H]2C(=O)O)s1 (some centres unmarked)", "Reading": "100 to 1000 nM"}

Q) Report value: EC50, system: PPARδ (Homo sapiens, UniProt Q03181), compound: CCc1cc(C(=O)c2ccc3cc(Cl)ccc3n2)c(NC(=O)CSCC(=O)O)s1
A) 100 to 1000 nM

Q) Report value: EC50, system: PPARδ (Homo sapiens, UniProt Q03181), compound: CCc1cc(C(=O)c2ccc(OC(F)(F)F)cc2)c(NC(=O)C(C)(C)NCC(=O)O)s1
A) 100 to 1000 nM

Q) Report value: EC50, system: PPARδ (Homo sapiens, UniProt Q03181), compound: CCCc1cc(C(=O)c2ccc(OC(F)(F)F)cc2)c(NC(=O)CSCC(=O)O)s1
A) < 100 nM

Q) Report value: EC50, system: PPARδ (Homo sapiens, UniProt Q03181), compound: CCc1cc(C(=O)c2ccc(OC(F)(F)F)c(Cl)c2)c(NC(=O)CSCC(=O)O)s1
A) < 100 nM

====

# Subject Of Test: PPARδ (Homo sapiens)
# Construct: fused to amino acids 147-441 of PPARδ downstream of CMV promoter; expressed in transfected cells; host or cells: HEK293 cells, transiently transfected with pFACMV-PPARδ using Fugene
# Sequence (Q03181 147-441): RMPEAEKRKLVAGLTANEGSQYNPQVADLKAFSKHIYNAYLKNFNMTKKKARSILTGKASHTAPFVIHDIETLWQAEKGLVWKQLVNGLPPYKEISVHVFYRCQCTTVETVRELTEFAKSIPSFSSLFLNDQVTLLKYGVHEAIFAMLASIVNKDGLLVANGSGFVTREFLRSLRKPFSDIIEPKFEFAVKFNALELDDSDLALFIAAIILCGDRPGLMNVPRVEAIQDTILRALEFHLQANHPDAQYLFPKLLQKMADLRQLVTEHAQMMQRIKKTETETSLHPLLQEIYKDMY
# Assay Remarks: Transactivation assay (PPARδ GAL4 assay) in transiently transfected HEK293 cells
# Assay type: cell-based
# Details: luciferase reporter, Table 1
pEC50: −log10 of the molar value.
Parameter: pEC50

Reference set (6 entries):
{"Compound": "CCc1cc(C(=O)c2ccc(Cl)cc2)c(NC(=O)CSCC(=O)O)s1 [Example 23]", "Reading": "6.00 to 7.00"}
{"Compound": "CCc1cc(C(=O)c2ccc(C)c(C)c2)c(NC(=O)CSC(C)(C)C(=O)O)s1 [Example 54]", "Reading": "6.00 to 7.00"}
{"Compound": "CCc1cc(C(=O)c2ccc(OC(F)(F)F)cc2)c(NC(=O)CNC(CC)C(=O)O)s1 (centres unmarked) [Example 80]", "Reading": "> 7.00"}
{"Compound": "CCc1cc(C(=O)c2cccc(-c3ccc(OC(F)(F)F)cc3)c2)c(NC(=O)CSCC(=O)O)s1 [Example 44]", "Reading": "6.00 to 7.00"}
{"Compound": "CCc1cc(C(=O)c2ccc(Oc3ccccc3)nc2)c(NC(=O)CSCC(=O)O)s1 [Example 60]", "Reading": "4.52 to 6.00"}
{"Compound": "CCc1ccc(C(=O)c2cc(CC)sc2NC(=O)CC2(CC(=O)O)CCCC2)cc1 [Example 11]", "Reading": "4.52 to 6.00"}

Q) Quote pEC50 reported for CCc1cc(C(=O)c2ccc(F)cc2)c(NC(=O)CC2(CC(=O)O)CCCC2)s1 [Example 21] please.
A) 4.52 to 6.00

Q) Quote pEC50 reported for CCc1cc(C(=O)c2ccc(Cl)cc2)c(NC(=O)CC(C)(C)CC(=O)O)s1 [Example 25] please.
A) 4.52 to 6.00

====

# Subject Of Test: PPARδ (Homo sapiens)
# Construct: fused to amino acids 147-441 of PPARδ downstream of CMV promoter; expressed in transfected cells; host or cells: HEK293 cells, transiently transfected with pFACMV-PPARδ using Fugene
# Assay Remarks: Transactivation assay (PPARδ GAL4 assay) in transiently transfected HEK293 cells
# Type: cell-based
# Details: luciferase reporter, Table 2
pEC50: −log10 of the molar value.
Reported values of pEC50 for individual entries

Reference set (2 entries):
{"Molecule": "CCc1cc(C(=O)c2ccc(OC(F)(F)F)c(F)c2)c(NC(=O)CCC(C)(C)C(=O)O)s1", "Subject Of Test": "PPARδ (Homo sapiens)", "pEC50": "6.00 to 7.00"}
{"Molecule": "CCc1cc(C(=O)c2cc3cc(OC(F)(F)F)ccc3n2C)c(NC(=O)CCC(C)(C)C(=O)O)s1", "Subject Of Test": "PPARδ (Homo sapiens)", "pEC50": "> 7.00"}

Q) Quote pEC50 reported for CCc1cc(C(=O)c2ccc(OC(F)(F)F)cc2)c(NC(=O)CN2CCC[C@]2(C)C(=O)O)s1 please.
A) 6.00 to 7.00

Q) Quote pEC50 reported for CCc1cc(C(=O)c2ccc(OC(F)(F)F)cc2)c(NC(=O)CC(C)CC(=O)O)s1 (stereo not shown) please.
A) > 7.00

Q) Quote pEC50 reported for CCc1cc(C(=O)c2ccc(OC(F)(F)F)cc2)c(NC(=O)CN2CCCCC2C(=O)O)s1 (stereo not shown) please.
A) 6.00 to 7.00

Q) Quote pEC50 reported for CCc1cc(C(=O)c2ccc(OC(F)(F)F)cc2)c(NC(=O)C(NCC(=O)O)c2ccccc2)s1 (stereo not shown) please.
A) 6.00 to 7.00

Q) Quote pEC50 reported for CCc1cc(C(=O)c2ccc(OC(F)(F)F)cc2)c(NC(=O)CN2CCCC(C(=O)O)C2)s1 (stereo not shown) please.
A) 6.00 to 7.00

Q) Quote pEC50 reported for CCc1cc(C(=O)c2ccc(OC(F)(F)F)cc2)c(NC(=O)C(C)(C)SCC(=O)O)s1 please.
A) 6.00 to 7.00

Q) Quote pEC50 reported for CCc1cc(C(=O)c2ccc(OC(F)(F)F)cc2)c(NC(=O)CN[C@@](C)(CC)C(=O)O)s1 please.
A) 6.00 to 7.00

Q) Quote pEC50 reported for CCc1cc(C(=O)c2ccc(F)cc2)c(NC(=O)CSc2ccc(OC(C)(C)C(=O)O)cc2)s1 please.
A) 6.00 to 7.00

Q) Quote pEC50 reported for CCc1cc(C(=O)c2ccc(-c3ccccn3)cc2)c(NC(=O)CSCC(=O)O)s1 please.
A) 6.00 to 7.00

Q) Quote pEC50 reported for CCc1cc(C(=O)c2ccc(OC(F)(F)F)cc2)c(NC(=O)CN(C)[C@@H](C)C(=O)O)s1 please.
A) > 7.00

Q) Quote pEC50 reported for CCc1cc(C(=O)c2nc3ccc(OC(F)(F)F)cc3s2)c(NC(=O)CSCC(=O)O)s1 please.
A) 6.00 to 7.00

Q) Quote pEC50 reported for CC(C)c1cc(C(=O)c2ccc(OC(F)(F)F)cc2)c(NC(=O)CSCC(=O)O)s1 please.
A) > 7.00

====

# Subject Of Test: PPARδ (Homo sapiens, UniProt Q03181)
# Construct: fused to amino acids 147-441 of PPARδ downstream of CMV promoter; expressed in transfected cells; host or cells: HEK293 cells, transiently transfected with pFACMV-PPARδ using Fugene
# Assay Remarks: Transactivation assay (PPARδ GAL4 assay) in transiently transfected HEK293 cells
# Assay type: cell-based
# Details: luciferase reporter, Table 1
Reported values of EC50 for individual entries

{"Smiles Repr": "CCc1cc(C(=O)c2ccc(OC(F)(F)F)cc2)c(NC(=O)c2cccc(OCC(=O)O)c2)s1", "EC50": "0.1 to 1 µM"}
{"Smiles Repr": "CCc1cc(C(=O)c2ccc(C(F)(F)F)nc2)c(NC(=O)CSCC(=O)O)s1", "EC50": "1 to 30 µM"}
{"Smiles Repr": "CCc1cc(C(=O)c2ccc(OC)cc2)c(NC(=O)CSc2cccc(C(=O)O)c2)s1", "EC50": "1 to 30 µM"}
{"Smiles Repr": "CCc1cc(C(=O)c2ccc(OC(F)(F)F)cc2)c(NC(=O)CSc2ccc(OCC(=O)O)c(C)c2)s1", "EC50": "0.1 to 1 µM"}

Q) Quote EC50 reported for CCc1cc(C(=O)c2ccc(OC)cc2)c(NC(=O)CCCSCC(=O)O)s1 please.
A) 0.1 to 1 µM
